Provide the recorded pKi for the entries that follow.
- studySystem: T1, human MMP-14 (human, UniProt P50281 112-541, limits assumed)
- T1 construct: Soluble MMP-14 used in selection, ELISA (biotinylated) and enzymatic assays; also called hMMP-14; bhMMP-14 (biotinylated human MMP-14)
- procedureText: enzymatic assay, IgG, 2 nM MMP-14, peptide substrate at 10, 14, 18 µM; highest Ki measured
Numbers only, as −log10 of the molar value.

Consider the worked cases shown below.
binder	quantitativeResult
M0037-C09 IgG (antibody, V domains shown, IgG of the Fab; also called M037-C09) VH: EVQLLESGGGLVQPGGSLRLSCAASGFTFSHYEMFWVRQAPGKGLEWVSSISPSGGQTHYADSVKGRFTISRDNSKNTLYLQMNSLRAEDTAVYYCATDRTYYDFWSGYGPLWYWGQGTLVTVSS VL: DIQMTQSPLSLPVTLGESASVSCRSSQSLLHENGHNYLDWYLQKPGQSPQLLIYLGSNRASGVPDRFSGSGSGTDFTLKISRVEAEDVGVYYCMQSLKTPPTFGPGTKVEIK	8.07
M0033-H07 IgG (antibody, V domains shown, IgG of the Fab) VH: EVQLLESGGGLVQPGGSLRLSCAASGFTFSVYGMVWVRQAPGKGLEWVSVISSSGGSTWYADSVKGRFTISRDNSKNTLYLQMNSLRAEDTALYYCARPFSRRYGVFDYWGQGTLVTVSS VL: DIQMTQSPSSLSASVGDRVTITCRASQGIRNFLAWYQQKPGKVPKLLVFGASALQSGVPSRFSGSGSGTDFTLTISGLQPEDVATYYCQKYNGVPLTFGGGTKVEIK	8.40

Entry M0038-F01 IgG (antibody, V domains shown, IgG of the Fab) VH: EVQLLESGGGLVQPGGSLRLSCAASGFTFSLYSMNWVRQAPGKGLEWVSSIYSSGGSTLYADSVKGRFTISRDNSKNTLYLQMNSLRAEDTAVYYCARGRAFDIWGQGTMVTVSS VL: DIQMTQSPSSLSAFVGDKVTITCRASQSVGTYLNWYQQKAGKAPELLIYATSNLRSGVPSRFSGSGSGTDFTLTINTLQPEDFATYYCQQSYSIPRFTFGPGTKVDIK has what pKi? 8.92
